All values here come from ChEMBL document CHEMBL4513216.

- procedure text: Toxicity liver stage against HepG2, at 10uM
- Assay type: cell-based
- Set-up: test concentration 10 uM, cell line HepG2-A16-CD81EGFP
- condition description: human, HepG2-A16-CD81EGFP cells; read-out: INHIBITION
Each record here notes measured cytotoxicity at 10 µM.

Qu. Please give the measured cytotoxicity at 10 µM for this compound: CN(Cc1ccco1)C[C@H]1OC[C@@H]2CCN(Cc3cccnc3)C[C@@H]21
Ans. -7.9%

Qu. Cc1cc(N2CCCN3CCC[C@H]3C2)n2nc(C)c(C)c2n1 , same question.
Ans. 4.37%

Qu. CCc1nnc2ccc(NCC3(O)CCOCC3)nn12 , same question.
Ans. -0.439%

Qu. CN(CCCc1cnn(C)c1)c1nccc(-c2cc(C(=O)O)ccn2)n1 , same question.
Ans. -3.29%

###

Each record here notes measured cytotoxicity at 10 µM.
- procedure text: Toxicity liver stage against HepG2, at 10uM
- Type: cell-based
- Design: test concentration 10 uM, cell line HepG2-A16-CD81EGFP
- condition description: human, HepG2-A16-CD81EGFP cells; read-out: INHIBITION
// return numeric value only (unit: %, not printed)

1) CCS(=O)(=O)NCC1OCCc2cn(CC3CCOCC3)nc21 (stereo not given) ... 2.77
2) CC(=O)NCCC1CCCCN1S(=O)(=O)c1ccc2ccccc2c1 (stereo not given) ... -125
3) O=C1CC(c2ccncc2)C2(CCN(C(=O)c3cccs3)CC2)N1 (stereo not given) ... -71.1
4) CN1CCOC(CNCCc2ccccn2)C1 (stereo not given) ... -4.77
5) COc1ncnc(N)c1CNCCc1ccc(-n2cccn2)cc1 ... -13.3

Then there is this compound:
Qu. Please give the measured cytotoxicity at 10 µM for this compound: CC(C)c1nc(CN2CCc3onc(-c4cccc(F)c4)c3C2)no1
Ans. 5.56

###

- procedure text: Toxicity liver stage against HepG2, at 10uM
- Format: cell-based
- Set-up: test concentration 10 uM, cell line HepG2-A16-CD81EGFP
- condition description: human, HepG2-A16-CD81EGFP cells; read-out: INHIBITION
Each record here notes measured cytotoxicity at 10 µM.
// return numeric value only (unit: %, not printed)

Worked cases, answers included:
1) CC(C)c1ccc(NC2CCCN(Cc3ccncc3)C2)cc1 (configuration not stated) ... -10.8
2) CN(Cc1ccon1)C(=O)CN1C(=O)OC(C)(C)C1=O ... -108
3) COc1ccnc(N(C)Cc2ccco2)n1 ... 14
4) CC(C)CN1CC(O)CN(S(=O)(=O)c2ccc(F)cc2)CC1=O (configuration not stated) ... 2.99
5) CC(C)CNC(=O)c1cc(Br)c2c(c1)OCCO2 ... 6.7
6) COc1ccccc1-n1cc(C(=O)NCCCn2nc(C)nc2C)cn1 ... 5.02
7) CCc1nc2n(n1)CC(NCC(=O)Nc1nccs1)CC2 (configuration not stated) ... -7.13
8) Cn1cc(NC(=O)CCc2ccsc2)ccc1=O ... -2.9
9) Cc1ccc(C)c(-n2cc(CN3CCOCC3)c(-c3ccccc3)n2)c1 ... 13.1
10) Cc1noc(C)c1CN1CCO[C@H]2[C@H](Oc3ccccn3)CC[C@@H]21 ... -6.69

Then there is this compound:
Qu. Please give the measured cytotoxicity at 10 µM for this compound: CCn1cc(NC(=O)NCCN2CCCc3ccccc32)cn1
Ans. 2.96
